- Protocol Summary: calcium signal blockers in parental CHO-K1 cells – cell-based, Fluo-8 calcium fluorescence, full deck, 1536-well, counter-screen for M1 antagonist project, primary screen (AID 602250);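 note: 0% = DMSO plus EC80 ATP and 100% = DMSO alone without ATP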
- Experimental Setup: ATP-induced calcium, Fluo-8 fluorescence, at 3 µM
Out of some 360,000 compounds screened, about 2,200 (0.61%) were called active.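 Rule for the calls: active = inhibition above a per-plate cutoff, the plate's mean sample inhibition plus 3 SD (cut at about 24% in these data); inactive = the rest.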 The entries come from a sample that favours actives as a whole.
The categories you may choose from are 1 (active), -1 (inactive)

CC(C)(C)n1nc2c(c1NC(=O)c1cc3ccccc3o1)CSC2 ... -1

Recorded test outcome, item CCc1ccccc1N(CC(=O)NCC1CCCO1)C(=O)CCC(=O)Nc1nccs1 (centres undefined)
-1

Hey, what did the test say about O=S(=O)(Nc1ccc2nc(-c3ccco3)[nH]c2c1)c1ccccc1 ?
-1

Assay outcome for NS(=O)(=O)c1ccc(NC(=O)COC(=O)c2c3c(nc4ccccc24)/C(=C\c2ccc4c(c2)OCO4)CCC3)cc1 : what was it?
1

Which outcome was entered for the molecule CN(C)S(=O)(=O)c1ccc(C(=O)NCCN=C2NS(=O)(=O)c3ccccc32)cc1 in this test?
-1

Give the logged outcome of this assay for the following molecule: CC(C)Oc1ccc(S(=O)(=O)N2CCOCC2)cc1NC(=O)C1CSC2(C)CCC(=O)N12 (centres undefined)
-1

Assay result, entry O=C(NCCN=C1NS(=O)(=O)c2ccccc21)c1ccc(S(=O)(=O)N2CCOCC2)cc1 — outcome?
-1

Given CCOC(=O)[C@H]1[C@H]2COc3ccc(Br)cc3[C@@H]2N2C(=O)CN(C)C(=O)[C@@]12C , state the outcome it received in this test.
-1

What classification did NS(=O)(=O)c1ccc(NC(=O)COC(=O)CCc2c[nH]c3ccccc23)cc1 end up with in this test?
-1

Where these numbers come from: PubChem BioAssay AID602250
